# CONDITION SUMMARY: bacteroides intestinalis, 12 h, 2 µM;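 further: parent drug quantified by LC–MS before and after incubation with the bacterium, comparing the two levels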
# Description: The drug is tested on Bacteroides intestinalis strain: DSM17393 for biotransformation. The drug concentrations were measured before and after a 12-h incubation by liquid-chromatography-coupled mass spectrometry (LC–MS)
RECORDED METRIC: Bacterial Biotransformation

Please give the measured Bacterial Biotransformation for this compound: CC(=O)O[C@]1(C(C)=O)CC[C@H]2[C@@H]3C=C(C)C4=CC(=O)CC[C@]4(C)[C@H]3CC[C@@]21C [MEGESTROL ACETATE]
Compound metabolized

Data request, read-out Bacterial Biotransformation, for CN1CC(=O)N2[C@H](c3ccc4c(c3)OCO4)c3[nH]c4ccccc4c3C[C@@H]2C1=O
Compound NOT metabolized

Param item = NC(=O)N1c2ccccc2CC(=O)c2ccccc21 [OXCARBAZEPINE] ; retrieve measured Bacterial Biotransformation.
Compound NOT metabolized

Looking for the measured Bacterial Biotransformation of C#C[C@]1(O)CC[C@H]2[C@@H]3CCC4=Cc5oncc5C[C@]4(C)[C@H]3CC[C@@]21C , can you help?
Compound metabolized

Fill in the blank: the reported Bacterial Biotransformation of CCOc1ccc(NC(C)=O)cc1 is ____.
Compound NOT metabolized

What does the record list as Bacterial Biotransformation for CN(C)CCOC(c1ccc(Cl)cc1)c1ccccn1.O=C(O)/C=C\C(=O)O (configuration not stated) [CARBINOXAMINE MALEATE] ?
Compound NOT metabolized

# Bacterial Biotransformation lookup, item OC(CCN1CCCCC1)(c1ccccc1)C1CCCCC1 (configuration not stated)
Compound NOT metabolized

For CN1CCN(CC/C=C2/c3ccccc3Sc3ccc(S(=O)(=O)N(C)C)cc32)CC1 , what is its reported Bacterial Biotransformation?
Compound NOT metabolized

# input compound: CC(=O)OCC(=O)NCCCOc1cccc(CN2CCCCC2)c1 [ROXATIDINE ACETATE] ; wanted: its Bacterial Biotransformation
Compound metabolized

Please look up its Bacterial Biotransformation: O=C(O)CCC(=O)O.O=C(O[C@H]1CN2CCC1CC2)N1CCc2ccccc2[C@@H]1c1ccccc1 [SOLIFENACIN SUCCINATE]
Compound NOT metabolized

# next compound below
Value lookup for Bacterial Biotransformation; key = CCOc1cc(CC(=O)N[C@@H](CC(C)C)c2ccccc2N2CCCCC2)ccc1C(=O)O [REPAGLINIDE]
Compound metabolized
